PROCEDURE_SUMMARY: Antiproliferative activity against HUVEC cells measured after 48 hrs by CCK-8 method
Format: toxicity, cell-based
RECORDED_CONDITIONS: human, HUVEC cells
READOUT_KIND: IC50 at 48 h (nM)
// units = nM; emit number, no label

Given the entry COc1cc(CCc2ccccc2Cl)cc(OC)c1O , report its measured IC50 at 48 h. 1700
